Data provenance: PubChem BioAssay (NCATS)

# experiment-summary: Quantitative High-Throughput drug screen in 47 multiple myeloma cell lines against the NCATS MIPE library collection: ARP1_JJKsccF8 cell viability assay (AID 1918928; also: nearly all actives have a fitted effect of over 40% in size; also: potency is read from the fitted curve at half-maximal effect)
# protocol-conditions: ARP1 myeloma cells viability, CellTiter-Glo ATP, 48 h; series mostly up to 45.8 µM
Records with an inconclusive call do not appear. Calls of active or inactive are those of the source. Calls follow the shape of the dose curve; as a rule, active = well fitted cell-killing curve with a large enough effect; inconclusive = small, poorly fitted or top-dose-only effect, or effect the other way; inactive = no such curve, though single readings can be large or run the other way.
measure-name: Potency

>  <compound>
Fc1ccc(C(OCCN2CCN(CCCc3ccccc3)CC2)c2ccc(F)cc2)cc1

>  <measure-name>
Potency

>  <val>
20.9 µM (active)

$$$$
>  <compound>
N[C@@H](Cc1ccc(N(CCCl)CCCl)cc1)C(=O)O

>  <measure-name>
Potency

>  <val>
16.6 µM (active)

$$$$
>  <compound>
CC1=C2C[C@@H]3[C@@H](CC=C4C[C@@H](O)CC[C@@]43C)[C@@H]2CC[C@]12O[C@H]1C[C@H](C)CN[C@H]1[C@H]2C

>  <measure-name>
Potency

>  <val>
inactive

$$$$
>  <compound>
CC(C)CC(N(C)C)C1(c2ccc(Cl)cc2)CCC1 (stereo unspecified)

>  <measure-name>
Potency

>  <val>
inactive

$$$$
>  <compound>
O=C(O)C(=O)c1cn(Cc2ccccc2)c2ccc(-c3ccc(OC(F)(F)F)cc3)cc12

>  <measure-name>
Potency

>  <val>
inactive

$$$$
>  <compound>
C=C(C)[C@H]1Cc2c(ccc3c2O[C@@H]2COc4cc(OC)c(OC)cc4[C@@H]2C3=O)O1

>  <measure-name>
Potency

>  <val>
0.526 µM (active)

$$$$
>  <compound>
CNC(=O)c1ccc(N2C(=S)N(c3ccc(C#N)c(C(F)(F)F)c3)C(=O)C23CCC3)cc1F

>  <measure-name>
Potency

>  <val>
inactive

$$$$
>  <compound>
Cc1cccc(C)c1NC(=O)CN1CCCC1=O

>  <measure-name>
Potency

>  <val>
inactive

$$$$
>  <compound>
CCCC(C)(COC(N)=O)COC(=O)NC(C)C (stereo unspecified)

>  <measure-name>
Potency

>  <val>
inactive

$$$$
>  <compound>
CNCC(O)c1ccc(O)cc1 (stereo unspecified)

>  <measure-name>
Potency

>  <val>
inactive

$$$$
>  <compound>
CN(C)CCN(C)CCc1ccc(Cl)c(Cl)c1

>  <measure-name>
Potency

>  <val>
inactive

$$$$
